# Protocol Text: NCI Yeast Anticancer Drug Screen. Data for the mlh1 rad18 strain (AID 175)
# Measurement Conditions: S. cerevisiae mlh1 rad18 strain growth inhibition; at 5.0 µM (retest, dose inferred, filed as 0.5); hits give high values
The panel holds about 79,000 compounds, 15% with a hit somewhere; the sample as a whole holds those more often.
growth inhibition overview
Give a bare numeral; the unit % is implied.

The compound listed as O/N=C1/CC2CCCc3ccc4cccc1c4c32 (centres undefined) has a reported growth inhibition of -26

The compound listed as `O=NNc1nc(-c2ccccn2)nc2ccccc12` has a reported growth inhibition of 1

The compound listed as `S=C(Nc1ccccc1)N(Cc1ccccc1)c1ccccc1` has a reported growth inhibition of 4

The compound listed as `O=C(c1ccccc1)c1cn(/N=C\c2ccccc2)c(=O)nc1-c1ccccc1` has a reported growth inhibition of -1

The compound listed as `Cc1cccc(-c2nnc(-c3cccc(C)c3)o2)c1` has a reported growth inhibition of 32

The compound listed as `Cn1c(=O)c2c(ncn2-c2ccncc2)n(C)c1=O` has a reported growth inhibition of -5

The compound listed as CC(=O)CC1CCC(=O)/C=C/C(=O)OC(CC(C)=O)CCC(=O)/C=C/C(=O)O1 (centres undefined) has a reported growth inhibition of 17

The compound listed as `COC(=O)c1cccc2c3ccccc3c3ccccc3c12` has a reported growth inhibition of 9

The compound listed as `CO[C@H]1C[C@@H]2CC[C@@H](C)[C@@](O)(O2)C(=O)C(=O)N2CCCC[C@H]2C(=O)O[C@H]([C@H](C)C[C@@H]2CC[C@@H](OC(=O)C(C)(CO)CO)[C@H](OC)C2)CC(=O)[C@H](C)/C=C(\C)[C@@H](O)[C@@H](OC)C(=O)[C@H](C)C[C@H](C)/C=C/C=C/C=C/1C` has a reported growth inhibition of 98
